Assay: Stability Against Metabolism by Liver Microsome
Assay type: in vitro ADME
Conditions: dog liver microsome, NADPH-producing system, phosphate buffer pH 7.4, 37° C.; n=2, mean
Protocol: Stability Against Metabolism by Liver Microsome: A dog liver microsome was prepared by a standard method. […] The concentration of the test substance after the discontinuation of the reaction was determined by high pressure liquid chromatography to obtain % residue (n=2, mean).
Measured Residue (%) of individual entries

| molecular_string | Residue (%) |
| --- | --- |
| O=C1CCC(=O)N1Cc1nc2sc3c(c2c(-c2ccc(O)cc2)c1Cl)CCNC3 | 96.3 |
| COc1ccc(-c2c(Cl)c(CN3C(=O)CCC3=O)nc3sc4c(c23)CCNC4)cc1 | 90.5 |
| COc1ccc(-c2c(Cl)c(CN3C(=O)CCC3=O)nc3sc4c(c23)CCNC4)cc1OC | 87.8 |
| CCOc1ccc(-c2c(Cl)c(CN3C(=O)CCC3=O)nc3sc4c(c23)CCNC4)cc1 | 94.1 |

Data credit: patent US6214838A
